# Experiment Description: Oral bioavailability in rat at 5 mg/kg
# Format: ADME, organism-based
# Assay Conditions: in vivo

# Compound, Units Label, bioavailability
measured = [
    ("C[C@H](CO)CONC(=O)c1ncc2cncn2c1Nc1ccc(I)cc1F", "%", 65),
    ("O=C(NOCCO)c1ncc2cncn2c1Nc1ccc(I)cc1F", "%", 38),
    ("C[C@H](O)CONC(=O)c1ncc2cncn2c1Nc1ccc(I)cc1F", "%", 15),
    ("O=C(NOCCO)c1ccn2cncc2c1Nc1ccc(I)cc1F", "%", 37),
    ("O=C(NOCCO)c1ccc2cncn2c1Nc1ccc(I)cc1F [GDC-0623]", "%", 100),
]
